Catalogue of melting point values
Measured Quantity: melting point

CN([C@H]1CC[C@H](Nc2nccc(-n3ncc4c(OCCCO)cccc43)n2)CC1)S(C)(=O)=O; 208.4 to 209 °C
Nc1cccc2c1ccn2-c1ccnc(N[C@H]2CC[C@H](O)CC2)n1; 218.9 to 220.1 °C
CC1(O)CCC(Nc2nccc(-n3ncc4ccccc43)n2)CC1 (stereo not shown); 168.1 to 170.1 °C
COCCCOc1cccc2c1ccn2-c1ccnc(N[C@H]2CC[C@H](NS(C)(=O)=O)CC2)n1; 207 to 208 °C
CS(=O)(=O)CCCOc1cccc2c1ccn2-c1ccnc(N[C@H]2CC[C@H](CN)CC2)n1.Cl; 292 to 293 °C
CC(=O)N[C@H]1CC[C@H](Nc2nccc(-n3ncc4c(OC[C@@H](C)CO)cccc43)n2)CC1 (stereo in doubt); 215 to 216 °C
CN(C)S(=O)(=O)CCCOc1cccc2c1cnn2-c1ccnc(N[C@H]2CC[C@H](C(=O)N3CCC(O)CC3)CC2)n1; 190 to 191 °C
CC(=O)Nc1ccc2cnn(-c3ccnc(N[C@H]4CC[C@H](O)CC4)n3)c2c1; 288 to 289.5 °C
CNC(=O)OCc1cccc2c1ccn2-c1ccnc(N[C@H]2CC[C@H](O)CC2)n1; 132 to 133 °C
O[C@H]1CC[C@H](Nc2nccc(-n3ncc4c(OCC5CC5)cccc43)n2)CC1; > 300 °C
